# System under test: HLA-B*48:01
# Measurement notes: IEDB peptide-MHC binding, purified MHC/direct/fluorescence; filed as Kd, often an IC50 or EC50 that approximates it; bounds were set here for any values at or beyond the usual limits of such assays
# Assay context: source organism: Burkholderia mallei
pKd: −log10 of the molar value.
Parameter measured: pKd

INSERT INTO measurements (sequence, observed_result) VALUES
  ('FQPQSGNAM', 5.60);

###

# System under test: HLA-A*31:01
# Measurement notes: IEDB peptide-MHC binding, purified MHC/competitive/fluorescence; filed as Kd, often an IC50 or EC50 that approximates it; bounds were set here for any values at or beyond the usual limits of such assays
# Assay context: source organism: Escherichia coli O157:H7 str. EDL933
Parameter measured: Kd (nM)

INSERT INTO results (sequence, parameter_measured, observed_result) VALUES
  ('VLIGRRWFR', 'Kd', 1.7);

###

# System under test: HLA-B*40:01
# Measurement notes: IEDB peptide-MHC binding, purified MHC/competitive/radioactivity; filed as Kd, often an IC50 or EC50 that approximates it; bounds were set here for any values at or beyond the usual limits of such assays
# Assay context: source organism: Dengue virus 2 Jamaica/1409/1983
Readings of Kd for the listed sequences
Parameter measured: Kd (nM)

INSERT INTO assay_data (sequence, units_of_measure, observed_result) VALUES
  ('HEWMTTEDM', 'nM', 381),
  ('SEIPNLDII', 'nM', 112),
  ('GEHKKLAEAI', 'nM', 53.7),
  ('AEHTGREIV', 'nM', 62.4);

###

# System under test: HLA-A*02:01
# Measurement notes: IEDB peptide-MHC binding, purified MHC/competitive/radioactivity; filed as Kd, often an IC50 or EC50 that approximates it; bounds were set here for any values at or beyond the usual limits of such assays
# Assay context: source organism: Triticum aestivum
Parameter measured: Kd (nM)

INSERT INTO results (sequence, parameter_measured, observed_result) VALUES
  ('QLIPCMDVVL', 'Kd', 384);

###

# System under test: HLA-B*15:09
# Measurement notes: IEDB peptide-MHC binding, purified MHC/competitive/fluorescence; filed as Kd, often an IC50 or EC50 that approximates it; bounds were set here for any values at or beyond the usual limits of such assays
# Assay context: source organism: Homo sapiens
Parameter measured: Kd

INSERT INTO results (sequence, observed_result) VALUES
  ('TYSPALNKM', '≥ 20 µM');

###

# System under test: HLA-A*03:01
# Measurement notes: IEDB peptide-MHC binding, purified MHC/direct/fluorescence; filed as Kd, often an IC50 or EC50 that approximates it; bounds were set here for any values at or beyond the usual limits of such assays
# Assay context: source organism: Brucella abortus
pKd: −log10 of the molar value.
Parameter measured: pKd

INSERT INTO results (sequence, observed_result) VALUES
  ('GRDHVRVTL', '≤ 4.70');

###

# System under test: HLA-B*45:01
# Measurement notes: IEDB peptide-MHC binding, purified MHC/competitive/radioactivity; filed as Kd, often an IC50 or EC50 that approximates it; bounds were set here for any values at or beyond the usual limits of such assays
# Assay context: source organism: Mammarenavirus lassaense
pKd: −log10 of the molar value.
Parameter measured: pKd

INSERT INTO results (sequence, observed_result) VALUES
  ('FEKHILPFMS', '≤ 4.65');
